Tested on: MDA-MB-231
Assay: Antiproliferative activity against human MDA-MB-231 cells after 96 hrs by WST1 assay
Format: functional
Conditions: MDA-MB-231, 96 h
Entries and their measured log10(GI50) follow.
observable: log10(GI50) (log10 of the value in µM)

> print(dat)
                            compound.string  system.tested  meas.value
1  CCCc1cc2c(cc1O)CC[C@@H]1[C@@H]2CC[C@]2(C)[C@@H](O)CC[C@@H]12     MDA-MB-231        1.22
2  COc1cc2c(cc1OS(N)(=O)=O)CC[C@@H]1[C@@H]2CC[C@]2(C)[C@@H](OC(N)=O)CC[C@@H]12     MDA-MB-231        0.06
3  CCCc1cc2c(cc1OS(N)(=O)=O)CC[C@@H]1[C@@H]2CC[C@]2(C)[C@@H](OC(N)=O)CC[C@@H]12     MDA-MB-231        1.16
4  CCCCc1cc2c(cc1OS(N)(=O)=O)CC[C@@H]1[C@@H]2CC[C@]2(C)[C@@H](OS(N)(=O)=O)CC[C@@H]12     MDA-MB-231        1.03
5  C[C@]12CC[C@@H]3c4ccc(OS(N)(=O)=O)cc4CC[C@H]3[C@@H]1CC[C@@H]2OS(N)(=O)=O     MDA-MB-231        1.26
6  CCCCc1cc2c(cc1OS(N)(=O)=O)CC[C@@H]1[C@@H]2CC[C@]2(C)[C@@H](OC(C)=O)CC[C@@H]12     MDA-MB-231        1.33
